target: IDH1-R132H homodimer enzyme (Homo sapiens (Human), UniProt O75874, R132H); experiment: In vitro assay IDH1-R132H homodimer, NADPH depletion assay with NADPH/NADP preincubation; settings: 5 μM NADPH and 37.5 μM NADP
Sequence (O75874 whole entry R132H): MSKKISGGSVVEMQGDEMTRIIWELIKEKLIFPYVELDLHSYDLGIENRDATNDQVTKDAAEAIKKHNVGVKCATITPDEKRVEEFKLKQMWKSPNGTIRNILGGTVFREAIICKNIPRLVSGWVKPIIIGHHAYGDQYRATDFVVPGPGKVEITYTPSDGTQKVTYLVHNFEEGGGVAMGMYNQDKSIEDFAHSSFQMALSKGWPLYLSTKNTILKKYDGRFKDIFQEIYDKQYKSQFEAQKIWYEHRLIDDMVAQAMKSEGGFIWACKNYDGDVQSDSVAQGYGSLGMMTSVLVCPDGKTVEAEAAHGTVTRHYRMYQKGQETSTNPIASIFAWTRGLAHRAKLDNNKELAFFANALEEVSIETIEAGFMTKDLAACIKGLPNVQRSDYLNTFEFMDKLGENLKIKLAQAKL
OBSERVED_PROPERTY: IC50

FC1(F)CCC(Nc2nc(NC3CCC(F)(F)CC3)nc(-c3cncc(C(F)(F)F)n3)n2)CC1 [Compound 160]    0.05 to 0.1 µM
Cc1nc(-c2nc(NC3CC(F)(F)C3)nc(NC3CC(F)(F)C3)n2)co1 [Compound 301]    > 1 µM
N#CC1(c2cc(Nc3nc(N[C@@H]4CCC(F)(F)C4)nc(-c4cccc(C(F)(F)F)n4)n3)ccn2)CC1 [Compound 137]    < 0.05 µM

The recorded IC50 for FC1(F)CC(Nc2nc(NC3CC(F)(F)C3)nc(-c3nccc(C(F)(F)F)n3)n2)C1 [Compound 256] is > 1 µM

The recorded IC50 for CC(F)(F)c1cccc(-c2nc(NC3CC(F)(F)C3)nc(NC3CC(F)(F)C3)n2)n1 [Compound 187] is 0.1 to 1 µM

The recorded IC50 for FC1(F)CC2(CC(Nc3nc(NC4CC5(C4)CC(F)(F)C5)nc(-c4cccc(Cl)n4)n3)C2)C1 [Compound 265] is > 1 µM

The recorded IC50 for FC1(F)CC(Nc2nc(NC3CC(F)(F)C3)nc(-c3csc(C(F)(F)F)n3)n2)C1 [Compound 170] is 0.1 to 1 µM

The recorded IC50 for N#Cc1cc(Nc2nc(NC3CCC(F)(F)C3)nc(-n3ccc(C(F)(F)F)n3)n2)ccn1 (stereo not shown) [Compound 179] is < 0.05 µM

The recorded IC50 for C[C@@H](Nc1nc(N[C@H](C)C2CC2)nc(-n2ccc(C(F)(F)F)n2)n1)C1CC1 [Compound 121] is 0.05 to 0.1 µM

The recorded IC50 for CC(C#N)Nc1nc(Nc2ccnc(C(C)(F)F)c2)nc(-c2cccc(C(F)(F)F)n2)n1 (stereo not shown) [Compound 253] is 0.1 to 1 µM

The recorded IC50 for N#Cc1cc(F)cc(Nc2nc(NC3CCC(F)(F)C3)nc(-c3cccc(C(F)(F)F)n3)n2)c1 (stereo not shown) [Compound 124] is < 0.05 µM

The recorded IC50 for C[C@@H](Nc1nc(N[C@H](C)C2CC2)nc(-n2cc(I)cn2)n1)C1CC1 [Compound 279] is > 1 µM

The recorded IC50 for CC(Nc1nc(Nc2ccnc(C(F)(F)F)c2)nc(-c2cccc(C(F)(F)F)n2)n1)C(F)(F)F (stereo not shown) [Compound 171] is 0.05 to 0.1 µM

====

System: HT1080 cells
Assay: Cellular assay for IDH1m R132C inhibitors, 2-HG by LC-MS in HT1080 cells
Assay type: cell-based
Conditions: Homo sapiens, HT-1080
Procedure: The following describes the experimental procedures that can be used to obtain data on column 5 of Table 4. Cells (HT1080 or U87MG) are grown in T125 flasks in DMEM containing 10% FBS, 1× penicillin/streptomycin and 500 ug/mL G418 (present in U87MG cells only). […] At 48 hours, 100 ul of media is removed from each well and analyzed by LC-MS for 2-HG concentrations. […] The plate is then read for luminescence with an integration time of 500 ms. […]
pIC50: −log10 of the molar value.
Below is a list of entries, each paired with its recorded pIC50 value.

Example entries and their recorded answers appear below.
CC(Nc1nc(N[C@H](C)C2CC2)nc(-c2cccc(C(F)(F)F)n2)n1)C(F)(F)F (stereo partly drawn)    > 7.30
C[C@@H](Nc1nc(N[C@H](C)C2CC2)nc(-c2cc(F)ccc2F)n1)C1CC1    < 6.00

// moving on: another record for pIC50
The recorded pIC50 for FC1(F)CCC(Nc2nc(Nc3ccnc(-c4ccccc4)c3)nc(-c3cccc(C(F)(F)F)n3)n2)C1 (stereo not drawn) is 6.00 to 7.00
